Target: T1, human PD-L1 (human, UniProt Q9NZQ7 19-238, limits assumed)
T1 construct: Protein used in the Biacore assays of 3.1
T1 sequence (Q9NZQ7 19-238 limits assumed): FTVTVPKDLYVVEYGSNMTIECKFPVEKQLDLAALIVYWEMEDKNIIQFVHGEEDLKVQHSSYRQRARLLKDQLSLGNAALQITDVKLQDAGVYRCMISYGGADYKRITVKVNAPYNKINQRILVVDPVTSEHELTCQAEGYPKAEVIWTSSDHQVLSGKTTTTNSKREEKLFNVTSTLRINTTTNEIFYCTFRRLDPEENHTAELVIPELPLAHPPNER
Test: Biacore kinetic profile
# maps each entry to its Kd

binder	Kd, nM
A09-242-2 (antibody, human IgG1, lambda, V domains shown, also called VL-A31G; VH-M33L, M35F, S63T, I93V) VH: EVQLLESGGGLVQPGGSLRLSCAASGFTFSMYLMFWVRQAPGKGLEWVSSIYPSGGITFYADTVKGRFTISRDNSKNTLYLQMNSLRAEDTAVYYCARIKLGTVTTVDYWGQGTLVTVSS VL: QSALTQPASVSGSPGQSITISCTGTSSDVGGYNYVSWYQQHPGKAPKLMIYDVSNRPSGVSNRFSGSKSGNTASLTISGLQAEDEADYYCSSYTSSSTRVFGTGTKVTVLG	0.76
A09-216-1 (antibody, human IgG1, lambda, V domains shown, 193V read as I93V; also called VH-M31I, M33L, S63T, 193V) VH: EVQLLESGGGLVQPGGSLRLSCAASGFTFSIYLMMWVRQAPGKGLEWVSSIYPSGGITFYADTVKGRFTISRDNSKNTLYLQMNSLRAEDTAVYYCARIKLGTVTTVDYWGQGTLVTVSS VL: QSALTQPASVSGSPGQSITISCTGTSSDVGAYNYVSWYQQHPGKAPKLMIYDVSNRPSGVSNRFSGSKSGNTASLTISGLQAEDEADYYCSSYTSSSTRVFGTGTKVTVLG	0.91
A09-247-2 (antibody, human IgG1, lambda, V domains shown, also called VL-A31G; VH-M31S, M33L, S63T, I93V) VH: EVQLLESGGGLVQPGGSLRLSCAASGFTFSSYLMMWVRQAPGKGLEWVSSIYPSGGITFYADTVKGRFTISRDNSKNTLYLQMNSLRAEDTAVYYCARIKLGTVTTVDYWGQGTLVTVSS VL: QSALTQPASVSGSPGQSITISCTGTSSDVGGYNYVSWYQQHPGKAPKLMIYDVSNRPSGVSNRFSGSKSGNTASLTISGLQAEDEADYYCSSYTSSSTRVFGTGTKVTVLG	0.76

Origin of the recorded values: patent US20140341917A1
